Origin of the recorded values: paper PMC12203311

# Tested on: MDA-MB-231/ATCC
# protocol: NCI60 five-dose screen
# Assay type: cell-based
# condition_notes: Homo sapiens, breast cancer
Readings of GI50 for the listed compounds
Please give a number only; it is taken to be in µM.

Example cases with answers are listed next.
compound	recorded_number
Cc1[nH]c(/C=N/NC(=O)c2[nH]c3ccc(Br)cc3c2-c2ccccc2)c(C)c1[N+](=O)[O-] [Derivative 3r]	3.56
CCc1cc[nH]c1/C=N/NC(=O)c1[nH]c2ccc(Br)cc2c1-c1ccccc1 [Derivative 3u]	5.02
Cc1cc(C)c(/C=N/NC(=O)c2[nH]c3ccc(Br)cc3c2-c2ccccc2)[nH]1 [Derivative 3c]	2.78

Ask: What does the record list as GI50 for O=C(N/N=C/c1cc(Br)c(Br)[nH]1)c1[nH]c2ccc(Br)cc2c1-c1ccccc1 [Derivative 3f] ?
Reply: 2.49
